Tested on: MS2 coat protein
assayName: apparent KD of MS2 coat protein, switch ON state; designed switch direction (-1 OFF switch, 1 ON switch): -1; higher = weaker reporter binding
recordedConditions: FMN input: 0 or 200 uM; Eterna round: R93 (includes R88 designs)
readout: apparent KD of MS2 coat protein

{"primarySequence": "CUUGUGUGAGGAUAUGUAAGAUGAAUAAGCAGUUCUAAAAGGCAGAAGGCACAUGAGGAUCACCCAUGUAAAAU [Sodirexe]", "obsValue": "61.3 nM"}
{"primarySequence": "AGCACGUCAGGAUAUACGAACACAAAGGGUAACAACAAGGGACAUGAGGAUCACCCAUGUAGAAGGGACUAGCA [Diamond 96]", "obsValue": "58.2 nM"}
{"primarySequence": "AACACACAUGAGGAUCACCCAUGUAAGGAUAUGCAAGCAAGAAGAAAGAACAGAAAAAGCAGAAGGUACACACA [Amethyst 74]", "obsValue": "28.4 nM"}
{"primarySequence": "AAGAAGACAGGAUAUACUAAAGAAAUGAAAAGAAAGAAAGAACAUGAGGAUCACCCAUGUAGAAGGGUCAAGAA [Sewahenre Senebmiu]", "obsValue": "66.2 nM"}
{"primarySequence": "AAGAAGUGAGGAUAUCGAAGACAGACGAAAAGUCUGUCAAGCGAGAAGGCACAUGAGGAUCACCCAUGUGGAAG [Mat - Exaclusion 4 - Eli mod - D80]", "obsValue": "31.8 nM"}
{"primarySequence": "AAAAAACAUGAGGAUCACCCAUGUAAGGAUAUGCUGAAAAACACUGGAAAACAGUGCAGCAGAAGGUACAAAAA [66%, Wbt, 34]", "obsValue": "21.1 nM"}
{"primarySequence": "AAAAAGGCAGGAUAUACAUGAGGAUCACCCAUGUGAAAAAAAAAAAAAAAAAAAAAGUGUAGAAGGGUCAAAAA [Exclusion 3 - Omei 2]", "obsValue": "51.7 nM"}
{"primarySequence": "GAAAAUUGAGGAUAUACGAACAUGUCAAAAGACGUGAAGGGACAUGAGGAUCACCCAUGUAGAAGGCGAAAAAG [Mat - Exclusion 2 - JL mod - D93]", "obsValue": "32 nM"}
{"primarySequence": "AGCAAACAUGAGGAUCACCCAUGUGAGGAUAUGAACGAAAUAAAAUAAAAAUAAAAGUUCAGAAGGCACGAGCA [Mat - Exclusion 1 - Eli mod - D26]", "obsValue": "27.3 nM"}
{"primarySequence": "AGCUAGCGAGGAUAUGCGAACAUGUCAAAAGACGUGAAGGGACAUGAGGAUCACCCAUGUAGAAGGCGCUAGCA [JL 74% mod 4]", "obsValue": "24.7 nM"}
{"primarySequence": "AACUAACAUGAGGAUCACCCAUGUCAGGAUAUGCAUCGAUCGAUCGAUCGAUCGAUCAGCAGAAGGGACAAAAA [Amethyst 92]", "obsValue": "22.3 nM"}
{"primarySequence": "CUCAAGUGAGGAUAUACAAAAAGUAAAUAAGUAAAACAAAAGUAGAAGGCACAUGAGGAUCACCCAUGUAAAUA [JR_Exc004_Sub301]", "obsValue": "45.5 nM"}
{"primarySequence": "AAAAAUCGAGGAUAUACAUGAGGAUCACCCAUGUCAGAAAAUGACUACACAAAAGAAAGUAGAAGGCGAUAAAA [Ex 3 May 18]", "obsValue": "29.4 nM"}

src = the supplement of paper PMC9170038
